The values you see were collected from PubChem BioAssay.

assay-procedure: endothelial E-selectin expression blockers – imaging, HUVEC, immunofluorescence, MLSMR starter and 10KST1 sets, primary screen (AID 487);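 note: signal is fraction of cell area covered by stained E-selectin grains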
condition: HUVEC TNFalpha-induced E-selectin immunofluorescence imaging, at 2 µM; stronger effect = higher value
Where inhibition equals or exceeds -20%, the correct label is Satisfied; where it does not, the label is Not satisfied.

[[record]]
compound = "COc1ccc(NC(=O)NCCN2C(=O)C3C4C=CC(C4)C3C2=O)cc1 (stereo unspecified)"
category_label = "Not satisfied"

[[record]]
compound = "O=C(CSc1ncn[nH]1)c1ccco1"
category_label = "Satisfied"

[[record]]
compound = "Cc1ccc(/C(O)=C2\\C(=O)C(=O)N(CCCN(C)C)C2c2ccccn2)cc1 (stereo unspecified)"
category_label = "Not satisfied"

[[record]]
compound = "c1ccc(-c2nnc(CN3CCC4(CC3)OCCO4)o2)cc1"
category_label = "Not satisfied"

[[record]]
compound = "O=C(NCc1ccco1)c1cc2sccc2n1Cc1ccccc1"
category_label = "Not satisfied"

[[record]]
compound = "O=C(O)c1ccc(-n2nc(C(F)(F)F)c3c2-c2ccoc2CC3)cc1"
category_label = "Not satisfied"

[[record]]
compound = "CCOC(=O)N1CCN(C(=O)CN(C2CCCCC2)S(=O)(=O)c2ccc(F)cc2)CC1"
category_label = "Not satisfied"

[[record]]
compound = "COC(=O)C1=C(C)Nc2ncnn2C1c1ccco1 (stereo unspecified)"
category_label = "Satisfied"

[[record]]
compound = "O=C(O)CCC1(C(=O)O)OCCc2ccccc21 (stereo unspecified)"
category_label = "Not satisfied"

[[record]]
compound = "O=C(C1CCCO1)N1CCN(C(c2ccccc2)c2ccccc2)CC1 (stereo unspecified)"
category_label = "Satisfied"

[[record]]
compound = "CCC(=O)Nc1cc(C)c(NC(=O)C23CC4CC(CC(C4)C2)C3)cn1"
category_label = "Satisfied"


====

# Lookup of reported inhibition keyed by entry
assay-procedure: endothelial E-selectin expression blockers – imaging, HUVEC, immunofluorescence, MLSMR starter and 10KST1 sets, primary screen (AID 487);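 note: signal is fraction of cell area covered by stained E-selectin grains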
condition: HUVEC TNFalpha-induced E-selectin immunofluorescence imaging, at 2 µM; stronger effect = higher value
Active and inactive are the calls of the source.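 The calls were made as follows: active = visually confirmed hit in the image check and inhibition above 20%; inconclusive = visually confirmed hit but inhibition not above 20%; inactive = no visual hit in the image check.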
reported-metric: inhibition

[[record]]
compound = "O=C(NCCN1CCOCC1)C1CCC(=O)N1Cc1ccccc1Cl (configuration not stated)"
test_result = "6.7% (inactive)"

[[record]]
compound = "CCOC(=O)N1CCC(NC(=O)c2ccc3c(c2)N(CC)CCS3)CC1"
test_result = "-62.7% (inactive)"

[[record]]
compound = "CCOC(=O)C1CCCN(S(=O)(=O)c2cccs2)C1 (configuration not stated)"
test_result = "-8.8% (inactive)"

[[record]]
compound = "Cc1ccc(OCC2Cn3c(nc4c3c(=O)n(C)c(=O)n4C)O2)cc1 (configuration not stated)"
test_result = "-13.1% (inactive)"

[[record]]
compound = "Cc1nc2ccccn2c1P(=O)(N1CCCCC1)N1CCCCC1"
test_result = "-64.2% (inactive)"

[[record]]
compound = "O=C(CN1CCN(c2nc(-c3ccccc3)cs2)CC1)Nc1ccc2c(c1)OCO2"
test_result = "-77.7% (inactive)"

[[record]]
compound = "c1ccc(-c2noc(-c3cccnc3)n2)nc1"
test_result = "-85.3% (inactive)"

[[record]]
compound = "Nc1ccc(-c2ccc(N)cc2C(F)(F)F)c(C(F)(F)F)c1"
test_result = "-3.6% (inactive)"

[[record]]
compound = "O=C(Nc1cccnc1N1CCOCC1)c1ccco1"
test_result = "-56.6% (inactive)"

[[record]]
compound = "Cc1cc(C)cc(NC(=O)CN(C)S(=O)(=O)c2cnc[nH]2)c1"
test_result = "0.4% (inactive)"

[[record]]
compound = "Cc1ccc2[nH]c(=O)c(C(c3nnnn3CCc3ccccc3)N3CCOCC3)cc2c1 (configuration not stated)"
test_result = "-38.7% (inactive)"

[[record]]
compound = "CCN1CCN(CCCNC(=O)c2cc3sccc3n2CC)CC1"
test_result = "37.9% (inactive)"

[[record]]
compound = "CCC(C)(C)n1nnnc1C(c1ccc(OC)c(OC)c1)N1CCN(c2ccccc2)CC1 (configuration not stated)"
test_result = "1.7% (inactive)"

[[record]]
compound = "Brc1ccc2ncnc(Nc3ccc(N4CCOCC4)cc3)c2c1"
test_result = "29.5% (inactive)"

[[record]]
compound = "CCOC(=O)c1c(N)c(C#N)nn1-c1ccccc1C(=O)OC"
test_result = "-41.6% (inactive)"

[[record]]
compound = "CN1CCN(S(=O)(=O)c2ccc(NC(=O)Nc3cccc(Cl)c3)cc2)CC1"
test_result = "36.5% (inactive)"

[[record]]
compound = "CC(=O)Nc1ccc(S(=O)(=O)N2CCN(c3cc(C)nc4ccccc34)CC2)cc1"
test_result = "-87.3% (inactive)"

[[record]]
compound = "O=C(C1=C(O)C(=O)N(Cc2ccccc2)C1c1ccncc1)c1ccco1 (configuration not stated)"
test_result = "-216% (inactive)"

[[record]]
compound = "CCOC(=O)c1oc2ccccc2c1CSc1nnnn1-c1ccc(OC)cc1"
test_result = "-102% (inactive)"

[[record]]
compound = "CCN(CC)CCCNC1CCS(=O)(=O)C1 (configuration not stated)"
test_result = "-19.7% (inactive)"

[[record]]
compound = "O=C(NC1CCCCC1)N(Cc1ccc(F)cc1)Cc1nc2ccccc2c(=O)[nH]1"
test_result = "-71.7% (inactive)"

[[record]]
compound = "Cc1ccc(S(=O)(=O)N2CCCC(C(=O)NC3=NCCS3)C2)cc1 (configuration not stated)"
test_result = "-27.5% (inactive)"

[[record]]
compound = "COc1ccc(Br)cc1-c1noc(-c2ccccc2)n1"
test_result = "-51.1% (inactive)"

[[record]]
compound = "O=C1C2C3C=CC(C3)C2C(=O)N1CNc1ccc(O)cc1 (configuration not stated)"
test_result = "32.1% (inactive)"

[[record]]
compound = "Nc1cccc2c1C(=O)N(c1ccccc1)C2=O"
test_result = "13.9% (inactive)"

[[record]]
compound = "COCC(=O)N(Cc1ccc(OC)cc1)Cc1nc2ccccc2c(=O)[nH]1"
test_result = "-57.4% (inactive)"

[[record]]
compound = "Cc1ccc2ncnc(NCCCN3CCOCC3)c2c1"
test_result = "-25.5% (inactive)"

[[record]]
compound = "CCOC(=O)c1c(COC(=O)c2ccco2)nc2ccccc2[n+]1[O-]"
test_result = "-31.9% (inactive)"

[[record]]
compound = "COc1ccc(C2CC(=O)c3c(C)nc(N4CCN(c5ccccc5)CC4)nc3C2)cc1 (configuration not stated)"
test_result = "29.4% (inactive)"

[[record]]
compound = "CCCSc1nnc2nc3c(nn12)c1ccccc1n3C"
test_result = "5.3% (inactive)"

[[record]]
compound = "CN(C)/C=C(\\C#N)c1nc2ccccc2[nH]1"
test_result = "-7.3% (inactive)"

[[record]]
compound = "CCN(CC)CCOC(=O)c1cccc(OC)c1"
test_result = "16.1% (inactive)"

[[record]]
compound = "Nc1c(N2CCCCC2)c(=O)[nH]c(=O)n1-c1ccccc1"
test_result = "-0.1% (inactive)"

[[record]]
compound = "NC(=O)C1CCN(C(=O)c2cc3n(n2)C(C(F)(F)F)CC(c2ccco2)N3)CC1 (configuration not stated)"
test_result = "-83.5% (inactive)"

[[record]]
compound = "CCCCCn1c(CN(C)Cc2ccccc2)nc2c1c(=O)n(C)c(=O)n2C"
test_result = "-110% (inactive)"

[[record]]
compound = "Cn1c(=O)c2c(nc(NCC3CCCO3)n2C)n(C)c1=O (configuration not stated)"
test_result = "-102% (inactive)"

[[record]]
compound = "Cc1cc(NC(=O)C23CCC(C)(C(=O)O2)C3(C)C)no1 (configuration not stated)"
test_result = "-22.3% (inactive)"

[[record]]
compound = "CC(C)NC(=O)Nc1cccs1"
test_result = "-84.5% (inactive)"

[[record]]
compound = "COc1ccc(C)cc1S(=O)(=O)N(C)CC(=O)Nc1ccc2c(c1)OCCO2"
test_result = "22.5% (inactive)"

[[record]]
compound = "O=C(OC1CCc2ccccc2C1=O)c1ccccc1O (configuration not stated)"
test_result = "-86.8% (inactive)"

[[record]]
compound = "Cc1c(NC(=O)c2nn(C)c(=O)c3ccccc23)c(=O)n(-c2ccccc2)n1C"
test_result = "-56.3% (inactive)"

[[record]]
compound = "CC1(C)CC(=O)C2=C(C1)Nc1ccccc1N=C2"
test_result = "40.8% (inactive)"

[[record]]
compound = "CC(=O)c1c(NCCc2ccccc2)cc(C)oc1=O"
test_result = "-32.4% (inactive)"

[[record]]
compound = "Cc1cccc(N2CCN(Cc3c(C)n(C)n(-c4ccccc4)c3=O)CC2)c1C"
test_result = "-29.6% (inactive)"

[[record]]
compound = "N#Cc1c(N)oc(-c2cccs2)c1-c1cccs1"
test_result = "-29.4% (inactive)"

[[record]]
compound = "COC(=O)c1ccc(NC(=O)C2C3CCC(C3)C2C(=O)O)cc1 (configuration not stated)"
test_result = "52.5% (inactive)"

[[record]]
compound = "COc1ccc(NC(=O)CC2Oc3ccccc3NC2=O)cc1 (configuration not stated)"
test_result = "-48.1% (inactive)"

